A set of compounds tested on HCV Protease (HCV NS3-4A) (Hepatitis C virus genotype 1a, UniProt P27958), with measured IC50:

Sample records with IC50:
compound="C=CC1CC1(NC(=O)C1CC2CN1C(=O)C(C(C)(C)C)NC(=O)OCCCC=CCOc1ccc3c(c1)CN(C3)C(=O)O2)C(=O)NS(=O)(=O)C1CC1 (stereo not shown) [Compound 15bj]" reported="0.1 to 5 nM"
compound="CC[C@H]1C[C@@]1(NC(=O)C1C[C@@H]2CN1C(=O)[C@H](C(C)(C)C)NC(=O)OCC1(CCCCCOc3cccc4c3CN(C4)C(=O)O2)CC1)C(=O)NS(=O)(=O)C1CC1 (stereo partly shown) [Compound 15a]" reported="0.1 to 5 nM"
compound="CC[C@H]1C[C@@]1(NC(=O)C1C[C@@H]2CN1C(=O)[C@H](C(C)(C)C)NC(=O)OCCCC/C=C/COc1c(OC)ccc3c1CN(C3)C(=O)O2)C(=O)NS(=O)(=O)C1CC1 (stereo partly shown) [Compound 15q]" reported="5.1 to 50 nM"

Consider the compound CC[C@H]1C[C@@]1(NC(=O)C1C[C@@H]2CN1C(=O)[C@H](C(C)(C)C)NC(=O)OCC(C)(C)CC/C=C/COc1cccc3c1CN(C3)C(=O)O2)C(=O)NS(=O)(=O)C1CC1 (stereo partly shown) [Compound 15r] and give its measured IC50.
0.1 to 5 nM

Consider the compound C=C[C@H]1C[C@@]1(NC(=O)C1C[C@@H]2CN1C(=O)[C@H](C(C)(C)C)NC(=O)OCC1(CC/C=C/COc3cccc4c3CN(C4)C(=O)O2)CC1)C(=O)NS(=O)(=O)C1CC1 (stereo partly shown) [Compound 15c] and give its measured IC50.
0.1 to 5 nM

Consider the compound CC[C@H]1C[C@@]1(NC(=O)C1C[C@@H]2CN1C(=O)[C@H](C(C)(C)C)NC(=O)OCC1(CC/C=C/COc3cccc4c3CN(C4)C(=O)O2)CC1)C(=O)NS(=O)(=O)C1CC1 (stereo partly shown) [Compound 15b] and give its measured IC50.
0.1 to 5 nM

Consider the compound CC[C@H]1C[C@@]1(NC(=O)C1C[C@@H]2CN1C(=O)[C@H](C(C)(C)C)NC(=O)OCC(C)(C)CCCCN(C)c1cccc3c1CN(C3)C(=O)O2)C(=O)NS(=O)(=O)C1CC1 (stereo partly shown) [Compound 15cd] and give its measured IC50.
0.1 to 5 nM

Consider the compound C=CC1CC1(NC(=O)C1CC2CN1C(=O)C(C(C)(C)C)NC(=O)OCC(C)(C)CCCCCOc1cccc3c1CN(C3)C(=O)O2)C(=O)NS(=O)(=O)C1CC1 (stereo not shown) [Compound 15at] and give its measured IC50.
0.1 to 5 nM

Consider the compound CC[C@H]1C[C@@]1(NC(=O)C1C[C@@H]2CN1C(=O)[C@H](C(C)(C)C)NC(=O)OCCC/C=C/CCOc1cccc3c1CN(C3)C(=O)O2)C(=O)NS(=O)(=O)C1CC1 (stereo partly shown) [Compound 15ap] and give its measured IC50.
0.1 to 5 nM

Consider the compound CCC1CC1(NC(=O)C1CC2CN1C(=O)C(C(C)(C)C)NC(=O)OCCCC=CCOc1ccc3c(c1)CN(C3)C(=O)O2)C(=O)NS(=O)(=O)C1CC1 (stereo not shown) [Compound 15bk] and give its measured IC50.
5.1 to 50 nM
